Reference for the values: patent US10363251B2

# test.system: TLR9 (Homo sapiens)
# Construct: expressed in transfected cells; host or cells: HEK293
# Sequence (Q9NR96 26-1032): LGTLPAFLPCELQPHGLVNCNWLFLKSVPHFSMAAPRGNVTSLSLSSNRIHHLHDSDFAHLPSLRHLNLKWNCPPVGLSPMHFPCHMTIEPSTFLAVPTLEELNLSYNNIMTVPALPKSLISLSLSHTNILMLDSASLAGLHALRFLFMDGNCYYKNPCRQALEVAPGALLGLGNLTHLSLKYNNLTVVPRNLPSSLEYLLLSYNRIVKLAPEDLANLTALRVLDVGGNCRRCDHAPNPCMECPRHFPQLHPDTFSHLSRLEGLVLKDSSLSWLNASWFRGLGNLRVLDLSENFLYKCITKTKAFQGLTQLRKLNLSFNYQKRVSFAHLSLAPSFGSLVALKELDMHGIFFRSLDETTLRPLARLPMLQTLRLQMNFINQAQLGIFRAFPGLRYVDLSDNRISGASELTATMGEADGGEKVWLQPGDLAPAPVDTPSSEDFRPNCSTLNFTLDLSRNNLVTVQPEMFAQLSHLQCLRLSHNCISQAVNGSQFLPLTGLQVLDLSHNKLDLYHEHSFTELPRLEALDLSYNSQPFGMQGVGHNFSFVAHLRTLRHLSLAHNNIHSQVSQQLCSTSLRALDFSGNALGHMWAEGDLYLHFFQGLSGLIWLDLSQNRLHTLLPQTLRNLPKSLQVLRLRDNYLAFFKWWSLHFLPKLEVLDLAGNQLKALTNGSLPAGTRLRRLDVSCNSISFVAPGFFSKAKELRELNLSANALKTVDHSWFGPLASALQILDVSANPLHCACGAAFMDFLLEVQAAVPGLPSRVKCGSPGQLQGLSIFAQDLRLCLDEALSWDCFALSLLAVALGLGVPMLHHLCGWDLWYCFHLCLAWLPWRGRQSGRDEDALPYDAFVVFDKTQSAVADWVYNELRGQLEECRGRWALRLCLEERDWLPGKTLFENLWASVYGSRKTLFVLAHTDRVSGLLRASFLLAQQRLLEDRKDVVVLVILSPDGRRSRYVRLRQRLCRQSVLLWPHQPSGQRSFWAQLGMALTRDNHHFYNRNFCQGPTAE
# assay.details: TLR9 screening of (+)-morphinan library, SEAP reporter in HEK293 cells expressing TLR9
# Type: cell-based
# applied.conditions: HEK293, read-out: % Inhibition (mean), 100 nM; activator ODN2006
Class fulfilled: inhibition at 0.1 µM at least 20%. Class not fulfilled: inhibition at 0.1 µM below 20%.

Kindly determine if inhibition at 0.1 µM recorded for COc1cc(Br)c2c(c1O)[C@@]13CCN(CC4CC4)C(C2)C1CCC(=O)C3 (stereo partly shown) is above or exactly 20%.
fulfilled

Kindly determine if inhibition at 0.1 µM recorded for COC1=CC=C2[C@@H]3Cc4c(Br)cc(OCc5ccccc5)c5c4[C@]2(CCN3CC2CC2)[C@@H]1O5 is above or exactly 20%.
not fulfilled

Kindly determine if inhibition at 0.1 µM recorded for COC1=CCC2[C@@H]3Cc4ccc(OC)c5c4[C@]2(CCN3)[C@@H]1O5 (stereo partly shown) is above or exactly 20%.
fulfilled

Kindly determine if inhibition at 0.1 µM recorded for COc1ccc2c3c1O[C@@H]1C(O)CC[C@@H]4[C@H](C2)N(CC2CC2)CC[C@@]314 (stereo partly shown) is above or exactly 20%.
fulfilled

Kindly determine if inhibition at 0.1 µM recorded for COc1ccc2c3c1O[C@@H]1C(=O)CC[C@@H]4[C@H](C2)N(C(=O)C2CCC2)CC[C@@]314 is above or exactly 20%.
not fulfilled

Kindly determine if inhibition at 0.1 µM recorded for COc1ccc2c3c1O[C@@H]1C(=O)CC[C@@H]4[C@H](C2)N(C(C)=O)CC[C@@]314 is above or exactly 20%.
not fulfilled

Kindly determine if inhibition at 0.1 µM recorded for COc1ccc2c3c1OC1C(O)CC[C@@H]4[C@H](C2)N(C)CC[C@@]314 (stereo partly shown) is above or exactly 20%.
not fulfilled

Kindly determine if inhibition at 0.1 µM recorded for COc1ccc2c3c1O[C@@H]1C(OC(C)=O)=CC[C@]4(O)[C@H](C2)N(C(C)=O)CC[C@@]314 is above or exactly 20%.
not fulfilled

Kindly determine if inhibition at 0.1 µM recorded for CCOC(=O)N1CC[C@@]23CC(=O)CCC2C1Cc1c(Br)cc(OC)c(O)c13 (stereo partly shown) is above or exactly 20%.
not fulfilled

Kindly determine if inhibition at 0.1 µM recorded for COC1=CCC2[C@@H]3Cc4ccc(OC)c5c4[C@]2(CCN3C)[C@@H]1O5 (stereo partly shown) is above or exactly 20%.
not fulfilled

Kindly determine if inhibition at 0.1 µM recorded for COC(=O)[C@@H](C)NC1CCC2C3Cc4ccc(OC)c5c4[C@]2(CCN3C)C1O5 (stereo partly shown) is above or exactly 20%.
fulfilled

Kindly determine if inhibition at 0.1 µM recorded for C=CCN1CC[C@@]23c4c5ccc(OC)c4O[C@@H]2C(=C)CC[C@]3(O)[C@@H]1C5 is above or exactly 20%.
not fulfilled

Kindly determine if inhibition at 0.1 µM recorded for COc1ccc2c3c1O[C@@H]1C(OC)(OC)C(Br)CC4[C@H](C2)N(C)CC[C@]341 (stereo partly shown) is above or exactly 20%.
not fulfilled
